The values you see were collected from patent US20240158368A1.

Let's look at some compounds and their measured Papp.
# protocol: in vitro
# measurement-context: PAMPA
Numbers only here, please. The scale is nm/s.

Past entries and their recorded results:
N#Cc1cc(C(=O)N2CCOCC2)c(N2CC[C@@H](NC(=O)c3cc(=O)[nH]c4c(F)cc(F)cc34)C2)c(C(F)(F)F)c1: 67.7
Cc1[nH]c(=O)cc(C(=O)N[C@@H]2CCN(c3c(C(=O)N4CCOCC4)cc(Br)cc3C(F)(F)F)C2)c1F: 82.4
COCCN1CCN(C(=O)c2cc(Br)cc(C(F)(F)F)c2N2CC[C@@H](NC(=O)c3cc(=O)[nH]c4c(F)cccc34)C2)CC1: 163
O=C(N[C@@H]1CCN(c2c(C(=O)N3CCCCC3)cc(Br)cc2C(F)(F)F)C1)c1cc(=O)[nH]c2c(F)cccc12: 149
N#Cc1cc(C(=O)N2CCCCC2)c(N2CC[C@@H](NC(=O)c3cc(=O)[nH]c4c(F)cccc34)C2)c(C(F)(F)F)c1: 152
O=C(N[C@@H]1CCN(c2c(C(=O)N3CC4CC(C3)O4)cc(Br)cc2C(F)(F)F)C1)c1cc(=O)[nH]c2c(F)cccc12: 160
CN1CCN(C(=O)c2cc(Br)cc(C(F)(F)F)c2N2CC[C@@H](NC(=O)c3cc(=O)[nH]c4c(F)cccc34)C2)CC1: 56
O=C(N[C@@H]1CCN(c2c(C(=O)N3CCN4CCOCC4C3)cc(Br)cc2C(F)(F)F)C1)c1cc(=O)[nH]c2c(F)cccc12 (stereo partly shown): 188

query: Field request: Papp | item: "Cc1cc(C(=O)N2CCOCC2)c(N2C[C@H](NC(=O)c3cc(=O)[nH]c4c(F)c(F)ccc34)CC2=O)c(C2CC2)c1"
result: 24.6

query: Field request: Papp | item: "O=C(N[C@@H]1CCN(c2c(OC(F)(F)F)cc(Cl)cc2C(=O)N2CCOCC2)C1)c1cc(=O)[nH]c2c(F)cccc12"
result: 153

query: State the recorded Papp for this entry: "O=C(N[C@@H]1CCN(c2c(C(=O)N3CCOCC3)cc(Br)cc2C(F)F)C1)c1c(F)c(=O)[nH]c2c(F)cccc12"
result: 131

query: Dear colleague, I am looking for the recorded Papp of the following compound: "CO[C@H]1CN(c2c(C(=O)N3CCOCC3)cc(C#N)cc2C(F)(F)F)C[C@@H]1NC(=O)c1cc(=O)[nH]c2c(F)cccc12"
result: 72.9

query: Entry "Cc1cc(C(=O)N2CCOCC2)c(N2C[C@H](NC(=O)c3cc(=O)[nH]c4c(F)c(F)ccc34)C[C@H]2C)c(C2CC2)c1" : reported Papp = ?
result: 157
